B1: ETS1 (parent)
chain: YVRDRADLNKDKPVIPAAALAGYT

variants of: B1; experiment: protein stability index of a GFP-peptide fusion (GPS, HEK-293T) (PSI 1-6); higher = more stable; details: c terminus: a fixed tail appended;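 also: lentivirally expressed fusions sorted by FACS into six bins by GFP to DsRed ratio, PSI derived from sequencing read proportions per bin multiplied by bin number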
Measured protein stability index, listed per entry.
Respond with the number and no other words.

Report measured protein stability index; entry is A18P
3.01

Others:
Report measured protein stability index; entry is A21L
3.03

Report measured protein stability index; entry is K12D
2.04

Report measured protein stability index; entry is D4T
3.02

Report measured protein stability index; entry is A17L
2.04

Report measured protein stability index; entry is R5I
3.08

Report measured protein stability index; entry is R5F
3.08

Report measured protein stability index; entry is P16Y
2.98

Data credit: the supplement of paper PMC10567573
